System: VERO cells
statedConditions: ratio of IC50 in VERO cells to MIC (M. tuberculosis H37Rv)

[
  {
    "compound": "CNC(=O)CCC(C)[C@H]1CCC2C3C(C[C@H](OC(C)=O)[C@@]21C)[C@@]1(C)CCC2(C[C@H]1C[C@H]3OC(C)=O)OOC1(CCC(C)CC1)OO2 (stereo partly drawn) [22/1C31]",
    "measuredOn": "VERO cells",
    "SI (selectivity index)": 0.29
  },
  {
    "compound": "CNC(=O)CCC(C)[C@H]1CCC2C3C(C[C@H](OC(C)=O)[C@@]21C)[C@@]1(C)CCC2(C[C@H]1C[C@H]3OC(C)=O)OOC1(CCCCC1C)OO2 (stereo partly drawn)",
    "measuredOn": "VERO cells",
    "SI (selectivity index)": 1.8
  },
  {
    "compound": "CCNC(=O)CCC(C)[C@H]1CCC2C3C(C[C@H](OC(C)=O)[C@@]21C)[C@@]1(C)CCC2(C[C@H]1C[C@H]3OC(C)=O)OOC1(CCC(CC)CC1)OO2 (single isomer, unassigned)",
    "measuredOn": "VERO cells",
    "SI (selectivity index)": 1.22
  }
]

Numbers sourced from patent US6906098B2.
